biological target: DCN1 (Homo sapiens (Human), UniProt Q96GG9); experiment: Competitive FP binding assay; settings: read-out: Binding affinity to DCN1 (IC50 (nM))
Sequence (Q96GG9 58-259): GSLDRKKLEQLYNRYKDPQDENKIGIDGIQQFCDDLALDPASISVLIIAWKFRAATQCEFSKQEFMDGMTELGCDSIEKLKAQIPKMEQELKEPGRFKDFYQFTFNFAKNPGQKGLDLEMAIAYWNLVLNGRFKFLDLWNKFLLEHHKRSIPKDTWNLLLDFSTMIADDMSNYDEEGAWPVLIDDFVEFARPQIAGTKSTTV
Square brackets hold non-standard residues; d marks the D form. Peptide text beside a SMILES is read from it. * marks the point of attachment. Ala(6-iPr-benzothiazol-2-yl) = CC(C)c1ccc2nc(C[C@H](N)C(=O)O)sc2c1; Cha = N[C@@H](CC1CCCCC1)C(=O)O; Propionyl = CCC(=O)*
Classes by IC50: 0 = under 200 nM, 1 = from 200 nM up to 1000 nM, 2 = 1000 nM and over

Problem: Which category does the recorded IC50 put CCC(=O)N[C@H](CNC(=O)[C@@H](N)C1CCCC1)Cc1nc2ccc(Cl)cc2s1 in?
Result: 2

Problem: Try the molecule CCC(=O)N[C@@H](Cc1nc2ccc(Cl)cc2s1)C(=O)N[C@H](CNC(=O)CCN1CCOCC1)Cc1ccccc1
Result: 1

Problem: Try the molecule CCC(=O)N[C@@H](Cc1ccc2ccccc2c1)C(=O)N[C@H](C(=O)N[C@@H](CCCCN)C(=O)NC(c1ccccc1)c1ccccc1)[C@@H](C)CC
Result: 1

Problem: Try the molecule CCC(=O)N[C@@H](Cc1ccc2ccccc2c1)C(=O)N[C@H](C(=O)N[C@@H](CCCCN(C)C)C(=O)NC(c1ccc(F)cc1)c1ccc(F)cc1)C1CCCC1
Result: 1

Problem: Try the molecule CCC(=O)N[C@H](CNC(=O)C1(N)CCCCCCC1)Cc1nc2ccc(C(C)C)cc2s1
Result: 2

Problem: Try the molecule CCC(=O)N[C@@H](Cc1nc(C)c(-c2ccccc2)s1)C(=O)N[C@H](CN)Cc1ccccc1
Result: 2

Problem: Try the molecule CCC(=O)N[C@@H](Cc1nc2ccc(Cl)cc2s1)C(=O)N[C@H](C(=O)N[C@@H](CCCCN)C(=O)NC(c1ccccn1)c1ccccn1)C1CCOCC1
Result: 1

Problem: Try the molecule CCC(=O)N[C@H](CNC(=O)CC1CCCC1)Cc1nc2ccc(Cl)cc2s1
Result: 1

Problem: Try the molecule CCC(=O)N[C@@H](Cc1ccc2ccccc2c1)C(=O)N[C@@H](Cc1cccs1)C(=O)N[C@@H](CCCCN)C(=O)NC(c1ccccc1)c1ccccc1
Result: 1

Problem: Try the molecule CCC(=O)N[C@@H](Cc1nc2ccc(C(C)C)cc2s1)C(=O)N[C@@H](CC1CCCCC1)C(=O)N[C@@H](CCCCN)C(=O)N[C@@H](CC(C)C)C(N)=O [Example 289] (Propionyl-[Ala(6-iPr-benzothiazol-2-yl)][Cha]KL-NH2)
Result: 0

Problem: Try the molecule CCC(=O)N[C@@H](Cc1nc2ccc(C(C)C)cc2s1)C(=O)N[C@H](C(=O)N[C@@H](CCCCN)C(=O)N[C@@H]1CCOc2ccccc21)C1CCOCC1
Result: 0

Problem: Try the molecule CCC(=O)N[C@@H](Cc1nc2ccc(Cl)cc2s1)C(=O)N[C@H](C(=O)N[C@@H](CCCCN)C(=O)N[C@@H]1CCOc2cccc(Cl)c21)C1CCCC1
Result: 0
